Target: NPY2 receptors (Homo sapiens, UniProt P49146)
Construct: Cell Membranes from KAN-TS cells having NPY2 receptors; endogenous in cells; host or cells: KAN-TS cells (membranes)
Assay: Neuropeptide Y receptor binding assay (125I-PYY, KAN-TS cell membranes)
Settings: 10 μM compound; read-out: NPY-2@10, % Inh
Reported Property: inhibition at 10 µM (%)

O=c1[nH]c2ccccc2n1C1CCN(C(=S)NCC(c2ccccc2)c2ccccc2)CC1 | 22
O=C(NC(c1ccccc1)c1ccccc1)N1CCC(n2c(=O)n(CCCN3CC=CC3)c3ccccc32)CC1 | 23
COC(=O)C(Cc1ccccc1)NC(=S)N1CCC(n2c(=O)n(CCCN3CCCC3)c3ccccc32)CC1 (centres unmarked) | 10
NCCCCn1c(=O)n(C2CCN(C(=S)NC(c3ccccc3)c3ccccc3)CC2)c2ccccc21 | 93

I: NCCCCn1c(=O)n(C2CCN(C(=S)NC(c3ccccc3)c3ccc(Cl)cc3)CC2)c2ccccc21 (centres unmarked)
II: COc1cccc(CNC(=S)N2CCC(n3c(=O)[nH]c4ccccc43)CC2)c1OC
III: Cc1ccccc1NC(=O)N1CCC(n2c(=O)[nH]c3ccccc32)CC1
IV: Cn1c(=O)n(C2CCN(C(=S)NC(c3ccccc3)c3ccccc3)CC2)c2ccccc21
Order the records by inhibition at 10 µM, with each subsequent value no larger than the one before. Give the order by naming the labels one after another as requested. I, IV, III, II
(I: 51%, IV: 34%, III: 22%, II: 10%)

###

Target: NPY2 receptors (Homo sapiens)
Construct: Cell Membranes from KAN-TS cells having NPY2 receptors; endogenous in cells; host or cells: KAN-TS cells (membranes)
Sequence (P49146 1-381): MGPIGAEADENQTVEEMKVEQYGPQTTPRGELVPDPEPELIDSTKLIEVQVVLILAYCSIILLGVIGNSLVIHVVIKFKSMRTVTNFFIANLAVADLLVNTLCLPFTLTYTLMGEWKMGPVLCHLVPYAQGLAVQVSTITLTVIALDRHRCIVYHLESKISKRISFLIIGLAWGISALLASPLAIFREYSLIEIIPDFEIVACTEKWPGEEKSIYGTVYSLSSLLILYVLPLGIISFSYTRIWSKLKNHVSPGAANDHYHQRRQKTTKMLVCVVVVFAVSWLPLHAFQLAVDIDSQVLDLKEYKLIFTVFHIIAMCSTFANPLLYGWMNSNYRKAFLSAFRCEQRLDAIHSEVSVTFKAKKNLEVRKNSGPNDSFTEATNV
Assay: Neuropeptide Y receptor binding assay (125I-PYY, KAN-TS cell membranes)
Conditions: 10 μM compound; read-out: NPY-2@10, % Inh
Reported Property: inhibition at 10 µM (%)

P: CC1CC(C)CN(CCCn2c(=O)n(C3CCN(C(=S)NC(c4ccccc4)c4ccccc4)CC3)c3ccccc32)C1 (stereo not shown)
Q: COC(=O)C(Cc1ccccc1)NC(=S)N1CCC(n2c(=O)n(CCCN3C(=O)c4ccccc4C3=O)c3ccccc32)CC1 (stereo not shown)
R: O=C1c2ccccc2C(=O)N1CCCn1c(=O)n(C2CCN(C(=S)NC(c3ccccc3)c3ccccc3)CC2)c2ccccc21
# rank by inhibition at 10 µM, ascending (min first) Return value: ordered labels per request. R, Q, P
(R: 4%, Q: 22%, P: 91%)

###

Biological target: human V1a receptor (Homo sapiens, UniProt P37288)
Sequence (P37288 whole entry): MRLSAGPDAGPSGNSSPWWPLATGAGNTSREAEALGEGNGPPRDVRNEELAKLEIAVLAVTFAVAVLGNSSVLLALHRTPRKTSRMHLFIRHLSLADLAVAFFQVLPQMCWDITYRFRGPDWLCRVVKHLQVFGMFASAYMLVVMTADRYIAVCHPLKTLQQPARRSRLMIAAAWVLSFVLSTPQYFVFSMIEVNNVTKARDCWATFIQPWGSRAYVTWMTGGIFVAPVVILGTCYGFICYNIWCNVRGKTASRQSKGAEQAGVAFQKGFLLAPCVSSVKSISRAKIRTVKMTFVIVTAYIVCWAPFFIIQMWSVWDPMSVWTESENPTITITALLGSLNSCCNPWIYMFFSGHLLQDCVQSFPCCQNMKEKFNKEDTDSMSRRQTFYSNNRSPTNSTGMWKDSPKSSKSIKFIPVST
Assay: V1a functional assay, intracellular calcium mobilization in transfected HEK-293 cells (FLIPR)
Set-up: expressed in transfected cells; host or cells: HEK-293
Conditions: challenge 1 nM AVP; read-out: Cell-Based Functional activity V1a IC50
pIC50: −log10 of the molar value. Counter-ions that a name gives are not always drawn.
Reported Property: pIC50

NCCCCn1c(=O)n(C2CCN(C(=S)NC(c3ccccc3)c3ccccc3)CC2)c2ccccc21 [Compound 64] | 6.85
N=C(N)NCCCn1c(=O)n(C2CCN(C(=S)NC(c3ccccc3)c3ccccc3)CC2)c2ccccc21 [Compound 59] | 6.62
COC(=O)[C@@H](Cc1ccccc1)NC(=S)N1CCC(n2c(=O)n(CCCNC(=N)N)c3ccccc32)CC1 [Compound 58] | 5.84

A: NCCCn1c(=O)n(C2CCN(C(=O)Nc3ccccc3-c3ccccc3)CC2)c2ccccc21 [Compound 62, hydrochloride]
B: NCCn1c(=O)n(C2CCN(C(=S)NC(c3ccccc3)c3ccccc3)CC2)c2ccccc21 [Compound 63, Hydrochloride]
Which one would you say has the larger pIC50 value: A , or B ? Field: selected label. Fill in the label of the entry you choose. B
(B: 6.51, A: 6.16)

###

Molecular target: human V2 receptor (Homo sapiens)
Sequence (P30518 whole entry): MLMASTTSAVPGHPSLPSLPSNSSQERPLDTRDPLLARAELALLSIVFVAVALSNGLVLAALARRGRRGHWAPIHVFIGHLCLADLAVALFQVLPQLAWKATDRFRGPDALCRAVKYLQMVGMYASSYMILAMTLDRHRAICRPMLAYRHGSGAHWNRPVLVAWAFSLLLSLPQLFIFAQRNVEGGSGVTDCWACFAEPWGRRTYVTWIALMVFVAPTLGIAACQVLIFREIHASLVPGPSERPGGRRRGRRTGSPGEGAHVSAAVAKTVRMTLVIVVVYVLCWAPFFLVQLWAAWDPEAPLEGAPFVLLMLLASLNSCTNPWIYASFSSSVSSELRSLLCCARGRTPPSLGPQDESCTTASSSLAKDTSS
Assay: V2 binding assay (3H-AVP displacement, HEK-293 membranes)
Set-up: expressed in transfected cells; host or cells: HEK-293 (membranes)
Settings: 1.0 μM compound; read-out: V2@1.0, % Inh
Structures can show the parent of a compound that is named as a salt.
Reported Property: inhibition at 1 µM (%)

Consider the reported inhibition at 1 µM for these compounds:
COc1cccc(CNC(=S)N2CCC(n3c(=O)[nH]c4ccccc43)CC2)c1OC | 9
O=C(NC(=S)N1CCC(n2c(=O)[nH]c3ccccc32)CC1)c1ccccc1 | 10
CC(CN1CCCC1)Cn1c(=O)n(C2CCN(C(=O)NC(c3ccccc3)c3ccccc3)CC2)c2ccccc21 (stereo not drawn) | 0
CCN(CC)CCn1c(=O)n(C2CCN(C(=O)Nc3ccccc3C)CC2)c2ccccc21 | 3
CCN(CC)CCCn1c(=O)n(C2CCN(C(=S)NC(c3ccccc3)c3ccccc3)CC2)c2ccccc21 | 8

I: O=c1n(CCCN2CCCC2)c2ccccc2n1C1CCN(C(=S)NC(c2ccccc2)c2ccccc2)CC1
II: O=c1n(CCCN2CCCCC2)c2ccccc2n1C1CCN(C(=S)N[C@]23C[C@H]4C[C@H](C[C@H](C4)C2)C3)CC1
III: COc1ccc(C(NC(=S)N2CCC(n3c(=O)n(CCCN4CCCCC4)c4ccccc43)CC2)c2ccc(OC)cc2)cc1
Number of compounds to sort: 3. Sort criterion: inhibition at 1 µM, ascending. Please list the labels according to the requested order. I, II, III
(I: 0%, II: 3%, III: 25%)

I: O=c1n(CCCN2CCC2)c2ccccc2n1C1CCN(C(=S)NC(c2ccccc2)c2ccccc2)CC1
II: Cc1ccc2c(c1)n(CCCN1CCCCC1)c(=O)n2C1CCN(C(=O)NC(c2ccccc2)c2ccccc2)CC1
III: NCCn1c(=O)n(C2CCN(C(=S)NC(c3ccccc3)c3ccccc3)CC2)c2ccccc21 [Compound 63, Hydrochloride]
Write the entries in order, lowest recorded inhibition at 1 µM first. Answer format: the labels, in the requested order. I, II, III
(I: 0%, II: 2%, III: 42%)

###

Target: UniProt:P37288
Test: V1a binding assay (3H-AVP displacement, HEK-293 membranes)
Parameters: expressed in transfected cells; host or cells: HEK-293 (membranes)
pIC50: −log10 of the molar value. Where a name gives a salt, the structure may show the parent alone.
Reported Property: pIC50

Reference set (3 entries):
CC(=O)NCCCn1c(=O)n(C2CCN(C(=S)NC(c3ccccc3)c3ccccc3)CC2)c2ccccc21 | 6.60
O=c1n(CCCN2CCCC2)c2ccccc2n1C1CCN(C(=S)NC(c2ccccc2)c2ccccc2)CC1 | 7.80
O=c1n(CCN2CCOCC2)c2ccccc2n1C1CCN(C(=S)NC(c2ccccc2)c2ccccc2)CC1 | 6.57

P: CN(CCCn1c(=O)n(C2CCN(C(=S)NC(c3ccccc3)c3ccccc3)CC2)c2ccccc21)C1CCCCC1
Q: Cc1ccc2c(c1)n(CCCN1CCCCC1)c(=O)n2C1CCN(C(=S)NC(c2ccccc2)c2ccccc2)CC1
R: NCCCn1c(=O)n(C2CCN(C(=O)Nc3ccccc3-c3ccccc3)CC2)c2ccccc21 [Compound 62, hydrochloride]
# desc sort on pIC50 across 3 compounds Answer format: list of labels, ordered as asked. P, Q, R

###

Target: human V1a receptor (Homo sapiens, UniProt P37288)
Assay: V1a binding assay (3H-AVP displacement, HEK-293 membranes)
Parameters: expressed in transfected cells; host or cells: HEK-293 (membranes)
Conditions: 1.0 μM compound; read-out: V1a@1.0, % Inh
Reported Property: inhibition at 1 µM (%)

Examples with their reported inhibition at 1 µM follow.
O=c1[nH]c2ccccc2n1C1CCN(C(=S)NC(c2ccccc2)(c2ccccc2)c2ccccc2)CC1 [Compound 25] | 0
CCN(CC)CCn1c(=O)n(C2CCN(C(=S)NC(Cc3ccccc3)C(=O)O)CC2)c2ccccc21 (stereo not shown) [Compound 43] | 39
O=c1n(CCCN2CCC2)c2ccccc2n1C1CCN(C(=S)NC(c2ccccc2)c2ccccc2)CC1 [Compound 140] | 59

A: O=c1[nH]c2ccccc2n1C1CCN(C(=S)Nc2ccccc2)CC1 [Compound 3]
B: O=C1CCCN1CCCn1c(=O)n(C2CCN(C(=S)NC(c3ccccc3)c3ccccc3)CC2)c2ccccc21 [Compound 175]
C: O=c1n(CCCN2CCCCC2)c2ccccc2n1C1CCN(C(=S)NCC(c2ccccc2)c2ccccc2)CC1 [Compound 118]
D: O=c1[nH]c2ccccc2n1C1CCN(C(=S)NCCN2CCOCC2)CC1 [Compound 26]
E: O=c1n(Cc2ccccc2)c2ccccc2n1C1CCN(C(=S)NC(c2ccccc2)c2ccccc2)CC1 [Compound 37]
Arrange by inhibition at 1 µM, high to low. Enter labels, ranked according to the request. C, B, D, E, A

P: Cc1ccccc1CNC(=O)N1CCC(n2c(=O)n(CCCN3CCCCC3)c3ccccc32)CC1 [Compound 151]
Q: O=c1[nH]c2ccccc2n1C1CCN(C(=S)NC(Cc2ccccc2)c2ccccc2)CC1 (stereo not shown) [Compound 32]
Sorting ascending by inhibition at 1 µM, which comes first: P or Q ? Write down the label of the entry you select. Q
(Q: 42%, P: 62%)

a: O=c1[nH]c2ccccc2n1C1CCN(C(=S)NCc2ccc(Cl)cc2Cl)CC1 [Compound 17]
b: CC(NC(=S)N1CCC(n2c(=O)[nH]c3ccccc32)CC1)c1ccc(F)cc1 (stereo not shown) [Compound 27]
c: O=C1OCCC1NC(=S)N1CCC(n2c(=O)n(CCCN3CCCCC3)c3ccccc32)CC1 (stereo not shown) [Compound 157]
d: COc1ccccc1CNC(=S)N1CCC(n2c(=O)[nH]c3ccccc32)CC1 [Compound 14]
e: COC(=O)[C@@H](Cc1c[nH]c2ccccc12)NC(=S)N1CCC(n2c(=O)[nH]c3ccccc32)CC1 [Compound 50]
Please order the records by their reported inhibition at 1 µM, lowest number first. Lab note: record answer as labels in requested order. d, c, e, a, b
(d: 0%, c: 5%, e: 8%, a: 12%, b: 33%)

1: O=c1n(Cc2ccc(-c3csnn3)cc2)c2ccccc2n1C1CCN(C(=S)NC(c2ccccc2)c2ccccc2)CC1 [Compound 167]
2: O=C(Nc1ccccc1F)N1CCC(n2c(=O)n(CCCN3CCCCC3)c3ccccc32)CC1 [Compound 114]
3: O=C(O)C(Cc1ccccc1)NC(=S)N1CCC(n2c(=O)[nH]c3ccccc32)CC1 (stereo not shown) [Compound 41]
Sequence the entries by inhibition at 1 µM, beginning with the highest number. # list labels per requested ordering 1, 3, 2

1: O=c1[nH]c2ccccc2n1C1CCN(C(=S)NCc2cccc3ccccc23)CC1 [Compound 15]
2: O=C(Cc1ccc(N2CCCC2)cc1)n1c(=O)n(C2CCN(C(=S)NC(c3ccccc3)c3ccccc3)CC2)c2ccccc21 [Compound 150]
3: O=c1n(CCCN2CCCCC2)c2ccccc2n1C1CCN(C(=S)NCc2ccccc2)CC1 [Compound 105]
Would you mind ranking these compounds by ascending inhibition at 1 µM? API: response body holds the labels in the requested order. 1, 2, 3
(1: 17%, 2: 38%, 3: 58%)

1: COc1ccccc1NC(=S)N1CCC(n2c(=O)n(CCCN3CCCCC3)c3ccccc32)CC1 [Compound 119]
2: O=c1n(CCCN2CCCCC2)c2ccccc2n1C1CCN(C(=S)Nc2ccccc2F)CC1 [Compound 115]
3: O=c1[nH]c2ccccc2n1C1CCN(C(=S)NCCCc2ccccc2)CC1 [Compound 38]
4: CC1CCN(CCCn2c(=O)n(C3CCN(C(=S)NC(c4ccccc4)c4ccccc4)CC3)c3ccccc32)CC1 [Compound 113]
Sort low-to-high on inhibition at 1 µM, please. Your answer should be the labels, listed in the requested order. 2, 3, 1, 4
(2: 13%, 3: 25%, 1: 48%, 4: 70%)

I: O=c1n(CCCN2CCCCC2)c2ccccc2n1C1CCN(C(=S)NCc2cccnc2)CC1 [Compound 168]
II: CC(=O)NCCNC(=O)C(Cc1ccccc1)NC(=S)N1CCC(n2c(=O)[nH]c3ccccc32)CC1 (stereo not shown) [Compound 44]
Among I and II , which shows a numerically higher inhibition at 1 µM result? Return value: the label identifying the chosen record. I
(I: 62%, II: 37%)

1: CCN(CC)CCn1c(=O)n(C2CCN(C(=O)NC(c3ccccc3)c3ccccc3)CC2)c2ccccc21 [Compound 91]
2: O=C(NCc1ccccc1F)N1CCC(n2c(=O)n(CCCN3CCCC3)c3ccccc32)CC1 [Compound 89]
Larger number for inhibition at 1 µM: 1 , or 2 ? Kindly give the label for the entry you pick. 1
